target: menin (Homo sapiens, UniProt O00255, T541A); construct: Menin (a.a. 1-610-6×his tag); assay: Menin/MLL homogenous time-resolved fluorescence (HTRF) assay; assay type: binding; conditions: location 2; read-out: (2) location 2 Menin HTRF assay (IC50 (nM))
Sequence (O00255 with tags, fused parts or gaps T541A): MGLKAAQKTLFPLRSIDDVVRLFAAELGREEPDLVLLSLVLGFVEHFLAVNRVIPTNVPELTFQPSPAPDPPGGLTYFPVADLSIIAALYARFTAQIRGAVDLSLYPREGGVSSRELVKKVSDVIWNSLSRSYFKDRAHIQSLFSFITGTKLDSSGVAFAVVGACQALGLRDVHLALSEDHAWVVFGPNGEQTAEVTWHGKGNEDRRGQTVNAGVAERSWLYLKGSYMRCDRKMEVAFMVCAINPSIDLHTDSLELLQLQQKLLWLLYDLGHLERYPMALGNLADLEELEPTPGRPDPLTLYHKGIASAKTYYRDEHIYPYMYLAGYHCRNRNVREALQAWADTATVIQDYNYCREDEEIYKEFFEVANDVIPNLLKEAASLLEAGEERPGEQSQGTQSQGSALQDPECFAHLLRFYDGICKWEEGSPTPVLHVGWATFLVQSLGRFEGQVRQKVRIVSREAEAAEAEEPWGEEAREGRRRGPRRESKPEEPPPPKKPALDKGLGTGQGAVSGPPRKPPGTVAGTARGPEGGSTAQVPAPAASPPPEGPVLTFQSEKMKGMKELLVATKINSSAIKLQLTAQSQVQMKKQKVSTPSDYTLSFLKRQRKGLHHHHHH
reportedEndpoint: IC50 (nM)

(1) O=C(c1ccc(NC2CC3(CCN(c4ncnc5sc(CC(F)(F)F)cc45)C3)C2)cc1)N1CCS(=O)(=O)CC1 (single isomer, unassigned) [Compound 412]
(2) CNc1nc(N2CC3(CC[C@@H](NCc4cccc(-c5cc[nH]n5)c4)C3)C2)c2cc(CC(F)(F)F)sc2n1 (stereo in doubt)
(3) FC(F)(F)Cc1cc2c(N3CC[C@]4(CC[C@@H](NCc5ccccc5)C4)C3)ncnc2s1 (single isomer, unassigned)
Re-order the entries listed above so their IC50 values fall from first to last. # format: label list in the order the request specifies
1, 3, 2
(1: 7510 nM, 3: 63.8 nM, 2: 32.7 nM)
